measured.on: Ylr278c (UniProt Q05854)
Sequence (Q05854 whole entry): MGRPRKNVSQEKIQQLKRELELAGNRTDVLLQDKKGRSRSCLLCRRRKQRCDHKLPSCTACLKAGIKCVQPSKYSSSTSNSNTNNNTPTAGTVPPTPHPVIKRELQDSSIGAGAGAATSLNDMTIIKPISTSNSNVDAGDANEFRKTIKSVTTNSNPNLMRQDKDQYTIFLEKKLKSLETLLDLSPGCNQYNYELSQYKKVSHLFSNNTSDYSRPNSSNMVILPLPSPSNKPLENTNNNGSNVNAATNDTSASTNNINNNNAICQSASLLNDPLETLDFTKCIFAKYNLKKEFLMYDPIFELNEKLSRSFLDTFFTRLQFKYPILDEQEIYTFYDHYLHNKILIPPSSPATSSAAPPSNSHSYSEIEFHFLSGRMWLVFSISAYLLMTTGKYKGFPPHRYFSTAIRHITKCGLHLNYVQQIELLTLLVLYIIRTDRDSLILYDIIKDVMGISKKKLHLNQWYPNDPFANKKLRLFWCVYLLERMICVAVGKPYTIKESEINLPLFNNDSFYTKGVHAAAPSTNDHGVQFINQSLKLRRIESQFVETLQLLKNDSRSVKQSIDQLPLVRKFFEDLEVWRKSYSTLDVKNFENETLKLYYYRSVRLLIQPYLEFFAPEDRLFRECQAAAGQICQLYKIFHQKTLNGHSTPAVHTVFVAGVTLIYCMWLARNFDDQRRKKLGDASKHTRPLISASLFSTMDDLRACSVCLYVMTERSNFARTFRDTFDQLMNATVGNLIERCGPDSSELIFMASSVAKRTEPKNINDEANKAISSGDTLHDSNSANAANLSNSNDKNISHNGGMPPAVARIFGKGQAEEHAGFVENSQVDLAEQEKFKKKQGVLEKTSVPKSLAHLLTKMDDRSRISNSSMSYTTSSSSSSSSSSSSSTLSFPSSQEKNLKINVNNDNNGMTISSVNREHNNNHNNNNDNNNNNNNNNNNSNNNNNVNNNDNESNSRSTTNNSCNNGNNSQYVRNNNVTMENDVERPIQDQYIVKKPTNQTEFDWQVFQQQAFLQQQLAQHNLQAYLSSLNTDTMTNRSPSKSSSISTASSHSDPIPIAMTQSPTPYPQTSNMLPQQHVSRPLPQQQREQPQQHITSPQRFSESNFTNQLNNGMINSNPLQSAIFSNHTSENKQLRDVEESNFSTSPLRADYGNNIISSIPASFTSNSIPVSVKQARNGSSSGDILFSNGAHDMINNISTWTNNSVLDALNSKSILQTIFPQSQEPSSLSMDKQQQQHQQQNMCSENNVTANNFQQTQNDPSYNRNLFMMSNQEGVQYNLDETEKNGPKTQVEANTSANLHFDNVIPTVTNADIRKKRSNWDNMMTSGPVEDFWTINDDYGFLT
experiment.notes: PBM E-score (8-mer binding enrichment) (E-score (-0.5 to 0.5)); higher = stronger / more preferred TF binding
condition.parameters: protein concentration: 200 nM; construct: GST-DNA-binding domain
Whole data set: some 33,000 sequences, median “E-score (-0.5 to 0.5)” near -0.054, cut for the highest 2% near 0.39. The entries come from a sample that favours the highest values as a whole.
Each entry gets rule not met if its PBM E-score stays under 0.2, and rule met if its PBM E-score is 0.2 or above.

- sequence.input: "ACGGACAC"
  category.label: "rule not met"
- sequence.input: "GACTGGAA"
  category.label: "rule not met"
- sequence.input: "ACTCTGTA"
  category.label: "rule not met"
- sequence.input: "ATTCGGCC"
  category.label: "rule met"
- sequence.input: "AATATGAA"
  category.label: "rule not met"
- sequence.input: "CCTGTGGC"
  category.label: "rule not met"
- sequence.input: "ATTCGGGC"
  category.label: "rule not met"
- sequence.input: "GGATCGCA"
  category.label: "rule not met"
- sequence.input: "ATTATCCA"
  category.label: "rule not met"
- sequence.input: "CAACTCGC"
  category.label: "rule not met"
- sequence.input: "CGAACTGC"
  category.label: "rule not met"
- sequence.input: "TCGGACCA"
  category.label: "rule met"
- sequence.input: "ACCTAAGC"
  category.label: "rule not met"
- sequence.input: "AGCCGCAT"
  category.label: "rule not met"
- sequence.input: "ACGGACAA"
  category.label: "rule met"
- sequence.input: "ACGGCGGC"
  category.label: "rule not met"
- sequence.input: "AATATCGC"
  category.label: "rule not met"
- sequence.input: "ACTGCTCT"
  category.label: "rule not met"
- sequence.input: "CATATGGC"
  category.label: "rule not met"
- sequence.input: "CAACACCG"
  category.label: "rule met"
- sequence.input: "ATGCTACG"
  category.label: "rule not met"
- sequence.input: "GCAGGTCA"
  category.label: "rule not met"
- sequence.input: "CTGGCGGC"
  category.label: "rule met"
- sequence.input: "CCTCCCTC"
  category.label: "rule not met"
- sequence.input: "CTGGCGGA"
  category.label: "rule not met"
- sequence.input: "ACTTTGCC"
  category.label: "rule not met"
- sequence.input: "CCGGCGGA"
  category.label: "rule met"
- sequence.input: "ATTATCCG"
  category.label: "rule met"
- sequence.input: "CCGGCGGC"
  category.label: "rule met"
- sequence.input: "ACGGACAT"
  category.label: "rule met"
- sequence.input: "TAGGACAA"
  category.label: "rule not met"
- sequence.input: "GCGGCGAA"
  category.label: "rule met"
- sequence.input: "AAGAGACT"
  category.label: "rule not met"
- sequence.input: "AATATCCG"
  category.label: "rule met"
- sequence.input: "AGATCGGA"
  category.label: "rule met"
- sequence.input: "AGTCAGTA"
  category.label: "rule not met"
- sequence.input: "GCGGCGGA"
  category.label: "rule met"
- sequence.input: "GGATCGGA"
  category.label: "rule met"
- sequence.input: "GGCGCATA"
  category.label: "rule not met"
- sequence.input: "ACATCCGC"
  category.label: "rule met"
- sequence.input: "GTGGCGGA"
  category.label: "rule met"
- sequence.input: "AAACACCT"
  category.label: "rule not met"
- sequence.input: "AGATCGGG"
  category.label: "rule met"
- sequence.input: "AAAATCCG"
  category.label: "rule met"
- sequence.input: "AAACACCG"
  category.label: "rule met"
